Biological target: T1, recombinant biotinylated monomeric Fc fusion of human Folate Receptor 1 (huFolR1 ECD-AcTev-Fcknob-Avi tag … (human, UniProt P0DOX5 223-449 = IgG part, biotin on the C-terminal Avi tag))
T1 construct: also called huFolR1-Fc; human FolR1-Fc
Experiment: SPR ProteOn, Fab analyte on immobilized antigen-Fc
READOUT: pKd
Answers are plain numbers, as −log10 of the molar value.

Ask | Could you tell me which pKd is on file for 15A1 Fab (Fab, V domains shown, bacterial Fab) VH: QVQLVQSGAEVKKPGASVKVSCKASGYTFTSYYMHWVRQAPGQGLEWMGIINPSGGSTSYAQKFQGRVTMTRDTSTSTVYMELSSLRSEDTAVYYCARNYYIGVVTFDYWGQGTLVTVSS VL: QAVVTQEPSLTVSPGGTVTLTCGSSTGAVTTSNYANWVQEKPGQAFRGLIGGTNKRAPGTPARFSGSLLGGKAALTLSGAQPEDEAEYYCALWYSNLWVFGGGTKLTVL ?
Reply | 7.51
